Quick reference for MIC among some compounds
- Test system: ART24
- EXPERIMENT: Antibiotic susceptibility of ART24 lots and cell banks, MIC following EFSA testing recommendations (Table 3)
- Type: cell-based, Bacillus amyloliquefaciens
- MEASUREMENT_SETUP: Bacillus amyloliquefaciens; ART24 source: cell bank CO-33 ART 24 BHI; read-out: MIC, CO-33 ART 24 BHI

COMPOUND: COc1cc(Cc2cnc(N)nc2N)cc(OC)c1OC [Trimethoprim]
VALUE_COMPARATOR: ≤
MIC [µg/mL]: 0.25

COMPOUND: O=C(N[C@H](CO)[C@H](O)c1ccc([N+](=O)[O-])cc1)C(Cl)Cl [Chloramphenicol]
VALUE_COMPARATOR: =
MIC [µg/mL]: 2

COMPOUND: [H]/N=C(/N)N[C@H]1[C@H](O)[C@@H](O)[C@H](O[C@@H]2O[C@@H](C)[C@](O)(C=O)[C@H]2O[C@@H]2O[C@@H](CO)[C@H](O)[C@@H](O)[C@@H]2NC)[C@@H](N/C(N)=N\[H])[C@@H]1O [Streptomycin]
VALUE_COMPARATOR: =
MIC [µg/mL]: 1

COMPOUND: O=C(O)c1cn(C2CC2)c2cc(N3CCNCC3)c(F)cc2c1=O [Ciprofloxacin]
VALUE_COMPARATOR: ≤
MIC [µg/mL]: 0.03

COMPOUND: CCC[C@@H]1C[C@@H](C(=O)N[C@@H]([C@H]2O[C@H](SC)[C@H](O)[C@@H](O)[C@H]2O)[C@H](C)Cl)N(C)C1 [Clindamycin]
VALUE_COMPARATOR: =
MIC [µg/mL]: 0.25

COMPOUND: NC[C@H]1O[C@H](O[C@H]2[C@H](O)[C@@H](O[C@H]3O[C@H](CO)[C@@H](O)[C@H](N)[C@H]3O)[C@H](N)C[C@@H]2N)[C@H](O)[C@@H](O)[C@@H]1O [Kanamycin]
VALUE_COMPARATOR: ≤
MIC [µg/mL]: 0.5

COMPOUND: CN(C)[C@@H]1C(O)=C(C(N)=O)C(=O)[C@@]2(O)C(O)=C3C(=O)c4c(O)cccc4[C@@](C)(O)[C@H]3C[C@@H]12 [Tetracycline]
VALUE_COMPARATOR: =
MIC [µg/mL]: 2

COMPOUND: CO[C@H]1/C=C/O[C@@]2(C)Oc3c(C)c(O)c4c(O)c(c(/C=N/N5CCN(C)CC5)c(O)c4c3C2=O)NC(=O)/C(C)=C\C=C\[C@H](C)[C@H](O)[C@@H](C)[C@@H](O)[C@@H](C)[C@H](OC(C)=O)[C@@H]1C [Rifampicin]
VALUE_COMPARATOR: =
MIC [µg/mL]: 0.25

COMPOUND: CC[C@H]1OC(=O)[C@H](C)[C@@H](O[C@H]2C[C@@](C)(OC)[C@@H](O)[C@H](C)O2)[C@H](C)[C@@H](O[C@@H]2O[C@H](C)C[C@H](N(C)C)[C@H]2O)[C@](C)(O)C[C@@H](C)C(=O)[C@H](C)[C@@H](O)[C@]1(C)O [Erythromycin]
VALUE_COMPARATOR: =
MIC [µg/mL]: 0.12

COMPOUND: CC(=O)NC[C@H]1CN(c2ccc(N3CCOCC3)c(F)c2)C(=O)O1 [Linezolid]
VALUE_COMPARATOR: =
MIC [µg/mL]: 0.5

COMPOUND: CC1(C)S[C@@H]2[C@H](NC(=O)[C@H](N)c3ccccc3)C(=O)N2[C@H]1C(=O)O [Ampicillin]
VALUE_COMPARATOR: ≤
MIC [µg/mL]: 0.03

COMPOUND: CCc1c(Cl)c(O)c(Cl)c(O)c1C(=O)O[C@H]1[C@H](O)[C@H](OC)[C@H](OC/C2=C\C=C\C[C@H](O)/C(C)=C/[C@H](CC)[C@@H](O[C@@H]3OC(C)(C)[C@@H](OC(=O)C(C)C)[C@H](O)[C@@H]3O)/C(C)=C/C(C)=C/C[C@@H]([C@@H](C)O)OC2=O)O[C@@H]1C [Fidaxomicin]
VALUE_COMPARATOR: =
MIC [µg/mL]: 4
